- tested-on: T1, soluble KIR3DL1*001-Fc (human, UniProt P43629 22-340)
- T1 construct: also called KIR3DL1 allele 001; KIR3DL1 allele-001 antigen; not shown: Fc domain
- experimental-details: BLI (ForteBio QK), hIgG1
Assignment: determine reported pKd for the given binders.
Just the number, please; pKd means minus log10 of the concentration in mol/L.

Problem: Write down pKd measured for item ET160-74 (antibody, human IgG1, V domains shown, Tested as human IgG1 (hIgG1), lambda light chain) VH: QVQLVQSGAEVKKPGSSVKVSCKASGGTFSSYAISWVRQAPGQGLEWMGWMNPNSGNTGYAQKFQGRVTMTRNTSISTAYMELSSLRSEDTAVYYCARYSFHLDGWGQGTLVTVSS VL: QSVLTQPPSVSAAPGQKVTISCSGSSSNVGNNYVSWYQQVPGTAPKLLIYDNNRRPSGIPDRFSGSKSGTSATLGITGLQTGDEADYYCGTWDNSLRVELFGGGTKVTVLG
Solution: 7.88

Problem: Write down pKd measured for item ET160-61 (antibody, human IgG1, V domains shown, Tested as human IgG1 (hIgG1), lambda light chain) VH: QVQLVESGGGLVQPGRSLRLSCAASGFTFDDYAMHWVRQAPGKGLEWVSGISWNSGSIGYADSVKGRFTISRDNAKNSLYLQMNSLRAEDTAVYYCASSLRYFEWPIDYWGQGTLVTVSS VL: NFMLTQPLSVSESPGKTVTISCTANGGSLASKYVQWFQQRPGSSPTTVIYDDNLRPSGVPDRFSGSIDTSSNSAALTISGLKTEDEADYYCQSYDNSSVVFGGGTKLTVLG
Solution: 7.82

Problem: Write down pKd measured for item ET160-77 (antibody, human IgG1, V domains shown, Tested as human IgG1 (hIgG1), lambda light chain) VH: EVQLVETGGGLVKPGGSLRLSCAASGFTFSDYYMSWIRQAPGKGLEWVSYISSSSSYTNYADSVKGRFTISRDNAKNSLYLQMNSLRAEDTAVYYCAREGIAAADAFDIWGQGTMVTVSS VL: SYELTQPPSVSVAPGQAATITCAGDNIESKSVNWYQQKPGQAPVLVVYDDTVRPSGIPERFSGSNSGNPATLTISRSEAGDEADYYCQVWDNRRDHVVFGGGTKVTVLG
Solution: 7.86

Problem: Write down pKd measured for item ET160-73 (antibody, human IgG1, V domains shown, Tested as human IgG1 (hIgG1), kappa light chain) VH: QVQLVQSGAEVKKPGESLKISCKGSGYSFTSYWIGWVRQMPGKGLEWMGIIYPGDSDTRYSPSFQGQVTISADKSISTAYLQWSSLKASDTAMYYCARGREQLWLDGMDVWGQGTTVTVSS VL: DVVMTQSPLSLPVTLGQPASISCRSTQSLVHSDGNTYLNWFQQRPGQSPRRLIYGVSNRDFGVPDRFSASGSGTDFTLKINRVEAEDVGVYYCMQGTHWPLTFGQGTKVEIKR
Solution: 7.67

Problem: Write down pKd measured for item ET160-72 (antibody, human IgG1, V domains shown, Tested as human IgG1 (hIgG1), lambda light chain) VH: QVQLVQSGGGVVRSGGSLRLTCAASGFTFGDYGMSWVRQAPGKGLEWVSGINWNGGGTGYADSVKGRFTISRDNAKDSLYLQMNSLRAEDTALYYCARVWGCGSTTCYEGADDAFDIWGQGTMVTVSS VL: LPVLTQPPSISGAPRQRVTISCSGARSNIGNNAVNWYQQVPGEAPKLLIFYDDQQPSGISGRFSGSKSGTSASLAISGLQSEDEADYYCAAWDDSLNGWVFGGGTKLTVLG
Solution: 7.80
